- Test system: Caenorhabditis elegans N2 infected with Nematocida parisii ERTm1
- Test details: progeny production relative to DMSO uninfected control; higher = more progeny despite microsporidia infection (inhibition of infection with low host toxicity)
- Protocol conditions: infection time 6 days; 100 µM
Record form. Attribute: progeny production. Fill in for each entry.

# Compound, Experimental system, Result
records = [
    ("CCCCCc1ccc(C(=O)NCCn2cc(CCCCCc3c[nH]c(N)n3)nn2)cc1", "Caenorhabditis elegans N2 infected with Nematocida parisii ERTm1", "2.61%"),
]

Please report progeny production for every entry that follows.
1. O=S(=O)(Nc1ccc(O)cc1)c1cccc2cccnc12
2. c1cnc(NCc2ccc(CNc3ncccn3)cc2)nc1

Response line:
1. 12%
2. 9.59%

Please report progeny production for every entry that follows.
1. O=S(=O)(Nc1ccc(-n2cccc2)cc1)c1ccc(Cl)c(Cl)c1
2. O=C(N[C@H](CCS)C(=O)N[C@H](Cc1ccccc1)C(=O)O)c1cc2ccccc2[nH]1
3. COc1cc(C(C(=O)NC2CCCCC2)N(C(=O)Cc2c[nH]c3ccccc23)c2ccc(C(C)C)cc2)cc(OC)c1OC (stereo not drawn)
4. CCCCC(CC)CNC(=N)NC(=N)NCCCCCCNC(=N)NC(=N)NCC(CC)CCCC (stereo not drawn)
5. O=C(Nc1ccc(F)cc1)c1nn(-c2ccccc2)c(=O)cc1Cl
6. CC(C)=CCC/C(C)=C/CNCCNC1C2CC3CC(C2)CC1C3 (stereo not drawn)

Response line:
1: 35.7%; 2: 11.3%; 3: 7.98%; 4: 24.3%; 5: 14%; 6: 30%

Please report progeny production for every entry that follows.
1. O=C(NCc1ncc(C(F)(F)F)cc1Cl)c1c(Cl)cccc1Cl
2. Fc1ccc(-c2nc(-c3c[nH]c4ccc(Br)cc34)[nH]c2-c2ccc(F)cc2)cc1
3. CCOC(=O)/C=C/[C@H](C[C@@H]1CCNC1=O)NC(=O)[C@@H](CC(=O)[C@@H](NC(=O)c1cc(C)on1)C(C)C)Cc1ccc(F)cc1
4. CC[C@@H](CO)NCCN[C@@H](CC)CO

Response line:
8.17%
6.81%
8.56%
6.91%

----------
- Test system: Caenorhabditis elegans N2 infected with Nematocida parisii ERTm1
- Test details: progeny production relative to DMSO uninfected control; higher = more progeny despite microsporidia infection (inhibition of infection with low host toxicity)
- Protocol conditions: infection time 6 days; 100 µM
Measured property: progeny production (%)
Numbers only, in %.

These recorded examples may help you get a feel for the data.
# Molecule, Unit string, progeny production
data = [
    ("O=C(O)C(Cc1c[nH]c2ccccc12)N1C(=O)c2ccccc2C1=O (stereo not drawn)", "%", 9.79),
    ("COc1ccc(C2=CC(c3c(F)cccc3Cl)n3ncnc3N2)cc1 (stereo not drawn)", "%", 8.48),
    ("COc1ccc(CNC(=O)C2CCN([C@H](C)c3cccc4ccccc34)CC2)cc1", "%", 15.7),
    ("O=C(Nc1[nH]c(=O)ncc1F)c1ccccc1", "%", 23.8),
    ("Oc1cc(-c2cccc3ccccc23)[nH]n1", "%", 18.4),
    ("O=C(NCc1ccc(F)cc1)c1c(O)c2ncccc2[nH]c1=O", "%", 16),
]

Please report progeny production for every entry that follows.
1. CCO/N=C/c1ccc(OCCCCN2CCN(c3ccncc3)C2=O)cc1
2. C/C(=N\NC(=O)C1CC1c1ccccc1)c1ccc(NC(=O)c2ccco2)cc1 (stereo not drawn)
3. C[C@@H](NC(=O)c1ccccc1-c1ccccc1)B(O)O
4. Fc1ccc2c(/C=C/c3nnn[nH]3)c[nH]c2c1
5. NCC(=O)Nc1ccc(-n2nc(C(F)(F)F)cc2-c2ccc3c(ccc4ccccc43)c2)cc1
6. CC[N+]1(C/C2=C/CCCCCC2)CCC(NC(=O)C2c3cc(Cl)ccc3Oc3ccc(Cl)cc32)CC1 (stereo not drawn)
7. CCOc1ccc(/C=N/NC(=O)C2CC2c2ccc(C(C)(C)C)cc2)cc1OCC (stereo not drawn)

Response line:
1. 9.79
2. 6.87
3. 21.8
4. 12.2
5. 11.9
6. 2.8
7. 12

Please report progeny production for every entry that follows.
1. O=c1[nH]cnc2c1ncn2[C@H]1CC[C@@H](CO)O1
2. CCCCc1ccc(S(=O)(=O)Nc2cc(C)on2)cc1
3. CCN(CC)CCCC(C)Nc1ccnc2cc(Cl)ccc12 (stereo not drawn)
4. Nc1cnn(C2OC(CO)C(O)C2O)c(=O)n1 (stereo not drawn)
5. CC1(C)CC(NC(=O)C(=O)Nc2ccc(Cl)cc2)CC(C)(C)N1
6. O=C(Cc1ccccc1F)Nc1nc2ccccc2[nH]1

Response line:
[9.85, 25, 5.16, 13.1, 8.19, 8.29]

Please report progeny production for every entry that follows.
1. Cc1cc(CCOc2c(C)cc(-c3nnn(C)n3)cc2C)on1
2. Cc1ccc(NC(=O)c2cc(Cl)ccc2O)cc1
3. CN(C)[C@@H]1C(=O)C(C(N)=O)=C(O)[C@@]2(O)C(=O)C3=C(O)c4c(O)c(NC(=O)CN5CCCC5)cc(F)c4C[C@H]3C[C@@H]12
4. COc1ccc(-n2cnc3cc(NCc4ccco4)ccc32)cc1

Response line:
1. 8.74
2. 8.35
3. 6.16
4. 17.2

These measurements were taken from the supplement of paper PMC10732440.
